# Test system: NCI-H322M lung
# Test description: NCI-60 one-dose screen, 48 h (100 = growth as untreated, 0 = no growth, -100 = all killed)
# Run parameters: 10 µM
This is part of a sample that, as a whole, favours compounds with a hit. Of some 83,000 tested, about 20% had one in any assay.
Assay metric: growth (%)
Give bare numbers, in %.

Recorded results for 6 compounds are shown here.
- O=C(Nc1cccc(C(F)(F)F)c1)C(Cl)Cl: 87.5
- Brc1ccc(-c2cn3ccnc3c(-c3ccc(Br)cc3)n2)cc1: 86.7
- CN1CCN(c2nc(-c3cccnc3)nc3sc4c(c23)CCCCCC4)CC1: 99.3
- CCCCn1c(=O)[nH]c2c(c1=O)C(c1ccc(Cl)cc1)c1c([nH]c(=O)n(CCCC)c1=O)N2: 91.6
- Cc1nc2ccc(-n3c(-c4ccc(Cl)cc4)nc4ccccc4c3=O)cc2n1Cc1ccccc1: 96.5
- COc1ccc(-c2csc(-c3cc(Cl)cc(Cl)c3Cl)n2)cc1: 98.6

Provide growth for all items below, preserving their order.
1. COc1ccc2nc(C)cc(Nc3ccc(Cl)cc3)c2c1
2. CC1=CC2OC34COC3CC(OC(=O)C(F)(F)F)C4(C)C2(C)CC1 (stereo not given)
3. CCCCCCCCCCCCc1ccc(C(=O)/C=C/C(=O)O)cc1
4. COc1ccc(NC(=O)CCn2cnc3c(cc(-c4ccccc4)n3-c3ccccc3)c2=O)cc1

1. 95.1
2. 96.1
3. 116
4. 109
